Where do the numbers come from? From patent US12012411B2.

# Assay explanation: in vitro
# Assay context: African green monkey, uninfected quiescent Vero-B cells
Collected CC50 at 4 days values appear next to each entry.
Just the number please, in µM, no unit attached.

COc1cccc(NC(C(=O)c2c[nH]c3ccccc23)c2ccc(F)nc2)c1 (stereo not drawn) [CPD-214] | 16

Field CC50 at 4 days (entry O=C(c1c[nH]c2ccccc12)C(Nc1cccc(-n2cncn2)c1)c1ccccc1 (stereo not drawn) [CPD-058] ) reads 64

Field CC50 at 4 days (entry COc1cc(NC(C(=O)c2c[nH]c3c(CCN(C)C)cccc23)c2ccccc2)cc(OC)c1 (stereo not drawn) [CPD-365] ) reads 12

Field CC50 at 4 days (entry COc1cc(NC(C(=O)c2c[nH]c3c(C)cccc23)c2ccccc2)cc(OC)c1 (stereo not drawn) [CPD-337] ) reads 15

====

# Assay explanation: in vitro
# Assay context: African green monkey, uninfected quiescent Vero-B cells
Collected CC50 at 4 days values appear next to each entry.
Just the number please, in µM, no unit attached.

COc1cc(NC(C(=O)c2c[nH]c3c(CCO)cccc23)c2ccc(F)cc2)cc(OC)c1 (stereo not drawn) [CPD-371] | 12
COc1cc(NC(C(=O)c2c[nH]c3ccccc23)c2ccccc2)ncn1 (stereo not drawn) [CPD-072] | 68
COc1cccc(NC(C(=O)c2cccc3[nH]ccc23)c2ccccc2)c1 (stereo not drawn) [CPD-302] | 15
COc1cc(CO)cc(NC(C(=O)c2c[nH]c3c(C)cccc23)c2ccccc2)c1 (stereo not drawn) [CPD-318] | 54
COc1cc(NC(C(=O)c2c[nH]c3ccccc23)c2cccnc2)ccn1 (stereo not drawn) [CPD-074] | 77

Field CC50 at 4 days (entry COc1cccc(NC(C(=O)c2n[nH]c3ccccc23)c2ccccc2)c1 (stereo not drawn) [CPD-198] ) reads 16

Field CC50 at 4 days (entry COc1cc(NC(C(=O)c2c[nH]c3ccccc23)c2ccccc2)cnc1OC (stereo not drawn) [CPD-256] ) reads 83

====

Collected log10 CC50 at 4 days values appear next to each entry.
# Assay explanation: in vitro
# Assay context: African green monkey, uninfected quiescent Vero-B cells
Please note: log10 values; quantity CC50 at 4 days; unit µM.

Example cases with answers are listed next.
COc1cccc(NC(C(=O)c2c[nH]c3cc(F)ccc23)c2ccc(OC)nc2)c1 (centres unmarked) [CPD-213] | 1.18
COc1cc(NC(C(=O)c2c[nH]c3c(CO)cccc23)c2ccccc2)cc(OC)c1 (centres unmarked) [CPD-362] | 1.61
COc1cccc(NC(C(=O)c2c[nH]c3ccc(Cl)cc23)c2ccccc2)c1 (centres unmarked) [CPD-086] | 1.08

# ---- query molecule ----
Field log10 CC50 at 4 days (entry COc1cc(NC(C(=O)c2c[nH]c3ncc(F)cc23)c2ccccc2)cc(OC)c1 (centres unmarked) [CPD-234] ) reads 1.18

====

# Assay explanation: in vitro
# Assay context: African green monkey, uninfected quiescent Vero-B cells
Measured quantity: CC50 at 4 days

COc1cc(NC(C(=O)c2c[nH]c3ccccc23)c2ccccc2)ccc1Cl (centres unmarked) | 11 µM
COc1cncc(NC(C(=O)c2c[nH]c3ccccc23)c2ccccc2)c1 (single isomer, unassigned) | 62 µM

Field CC50 at 4 days (entry COc1cccc(NC(C(=O)c2c[nH]c3c(C)cccc23)c2ccc(OC)nc2)c1 (centres unmarked) ) reads 20 µM

Field CC50 at 4 days (entry O=C(c1c[nH]c2ccccc12)C(Nc1cccc(N2CCCC2=O)c1)c1ccccc1 (centres unmarked) ) reads > 122 µM

Field CC50 at 4 days (entry COc1cccc(NC(C(=O)c2c[nH]c3ccccc23)c2cn3cc(C)ccc3n2)c1 (centres unmarked) ) reads > 121 µM

Field CC50 at 4 days (entry COc1cccc(NC(C(=O)c2c[nH]c3cc(F)ccc23)c2cccnc2)c1 (centres unmarked) ) reads 75 µM

Field CC50 at 4 days (entry CC(C)Oc1cncc(NC(C(=O)c2c[nH]c3ccccc23)c2ccccc2)c1 (centres unmarked) ) reads 15 µM

Field CC50 at 4 days (entry COc1ccc(C(Nc2cccc(OC)c2)C(=O)c2c[nH]c3ccccc23)nc1 (centres unmarked) ) reads 25 µM

====

# System: uninfected quiescent Vero-B cells
# Assay explanation: Cytotoxic assay in uninfected quiescent Vero-B cells (MTS/PMS)
# Assay context: 4 days (Table 3)
CC50 vs 20 µM: less than gives Yes; not less than gives No.

COc1cccc(NC(C(=O)c2c[nH]c3ccccc23)c2ccncc2)c1 (stereo not drawn) | Yes
COc1cc(NC(C(=O)c2c[nH]c3ccccc23)c2ccc(F)cc2)cc(OCCO)c1 (stereo not drawn) | No
COc1cccc(NC(C(=O)c2c[nH]c3ccccc23)c2cc3ccccn3n2)c1 (single isomer, unassigned) [CPD-325] | No
COc1cccc(NC(C(=O)c2c[nH]c3ccccc23)c2ccco2)c1 (stereo not drawn) | Yes
COc1cccc(NC(C(=O)c2c[nH]c3ccccc23)c2ccccc2)c1 (stereo not drawn) | Yes
COc1cccc(NC(C(=O)c2c[nH]c3ccc(F)cc23)c2ccccc2)c1 (stereo not drawn) | Yes
COc1cccc(NC(C(=O)c2c[nH]c3c(F)cccc23)c2ccccc2)c1 (stereo not drawn) | Yes
COc1ccc(OC)c(NC(C(=O)c2c[nH]c3ccccc23)c2ccccc2)c1 (stereo not drawn) | Yes

Now consider a different compound.
Query: Problem: For the compound COc1cccc(NC(C(=O)c2c[nH]c3ccccc23)c2ccc3nccnc3c2)c1 (stereo not drawn) , is CC50 under 20 µM?
Result: Yes

====

# Assay explanation: in vitro
# Assay context: African green monkey, uninfected quiescent Vero-B cells
Measured quantity: CC50 at 4 days

Example cases with answers are listed next.
COc1cc(NC(C(=O)c2cn(C)c3ccccc23)c2ccccc2)cc(OC)c1 (stereo not drawn) [CPD-338] | > 124 µM
COc1cccc(NC(C(=O)c2cn(S(=O)(=O)c3cn(C)cn3)c3ccccc23)c2ccccc2)c1 (stereo not drawn) [CPD-209] | > 100 µM
COc1cc(NC(C(=O)c2c[nH]c3cc(Cl)ccc23)c2ccccc2)cc(OC)c1 (stereo not drawn) [CPD-013] | 9 µM

Field CC50 at 4 days (entry COc1cc(NC(C(=O)c2c[nH]c3ccccc23)c2ccccc2)ccc1C#N (stereo not drawn) [CPD-218] ) reads 13 µM

Field CC50 at 4 days (entry COc1cc(NC(C(=O)c2nn(C)c3ccccc23)c2ccc(F)cc2)cc(OC)c1 (stereo not drawn) [CPD-340] ) reads > 119 µM

Field CC50 at 4 days (entry COc1cccc(NC(C(=O)c2csc3c2CCN(C)C3)c2ccccc2)c1 (stereo not drawn) [CPD-202] ) reads 104 µM

====

# Assay explanation: in vitro
# Assay context: African green monkey, uninfected quiescent Vero-B cells
Collected CC50 at 4 days values appear next to each entry.

COc1cccc(NC(C(=O)c2c[nH]c3ccc(F)cc23)c2cnc(OC)cn2)c1 (stereo not drawn) | 18 µM

Field CC50 at 4 days (entry COc1cccc(NC(C(=O)c2c[nH]c3nc(C)ccc23)c2ccccc2)c1 (stereo not drawn) ) reads > 134 µM

Field CC50 at 4 days (entry COc1cc(OC)nc(NC(C(=O)c2c[nH]c3ccccc23)c2ccccc2)n1 (stereo not drawn) ) reads 6 µM

Field CC50 at 4 days (entry COc1cccc(N(C)C(C(=O)c2c[nH]c3ccccc23)c2ccccc2)c1 (stereo not drawn) ) reads 19 µM

Field CC50 at 4 days (entry COc1cccc(NC(C(=O)c2c[nH]c3ccccc23)c2cc(C)on2)c1 (stereo not drawn) ) reads 48 µM

====

Collected CC50 at 4 days values appear next to each entry.
# Assay explanation: in vitro
# Assay context: African green monkey, uninfected quiescent Vero-B cells
Just the number please, in µM, no unit attached.

Example cases with answers are listed next.
O=C(c1c[nH]c2ccccc12)C(Nc1ccnc(F)c1)c1ccccc1 (centres unmarked) | 16
COc1cccc(NC(C(=O)c2c[nH]c3ccc(F)cc23)c2ccc(OC)nc2)c1 (centres unmarked) | 44
COc1cccc(NC(C(=O)c2c[nH]c3cc(Cl)ccc23)c2cc(C)on2)c1 (centres unmarked) | 13

Field CC50 at 4 days (entry COc1cccc(N2C(=O)CN(C)n3cc(c4ccccc43)C(=O)C2c2ccccc2)c1 (centres unmarked) ) reads 49

Field CC50 at 4 days (entry COc1cccc(NC(C(=O)c2c[nH]c3c(F)cccc23)c2ccc(OC)nc2)c1 (centres unmarked) ) reads 15

Field CC50 at 4 days (entry COc1cc(NC(C(=O)c2c[nH]c3ccccc23)c2cn3ccccc3n2)ccn1 (centres unmarked) ) reads 72

Field CC50 at 4 days (entry CCc1cccc2c(C(=O)C(Nc3ccc(NC(=O)CN4CCOCC4)cc3)c3ccccc3)c[nH]c12 (centres unmarked) ) reads 40

Field CC50 at 4 days (entry COc1cc(NC(C(=O)c2c[nH]c3ccc(F)cc23)c2ccc(OC)nc2)cc(OC)c1 (centres unmarked) ) reads 12

Field CC50 at 4 days (entry COc1cc(NC(C(=O)c2c[nH]c3c(CCO)cccc23)c2ccccc2)cc(OC)c1 (centres unmarked) ) reads 19

Field CC50 at 4 days (entry CCn1nccc1C(Nc1cccc(OC)c1)C(=O)c1c[nH]c2ccccc12 (centres unmarked) ) reads 20

Field CC50 at 4 days (entry Cc1cc(NC(C(=O)c2c[nH]c3ccccc23)c2ccccc2)no1 (centres unmarked) ) reads 77

Field CC50 at 4 days (entry COc1cc(O)cc(NC(C(=O)c2c[nH]c3ccccc23)c2ccccc2)c1 (centres unmarked) ) reads 52

Field CC50 at 4 days (entry COc1cccc(NC(C(=O)c2c[nH]c3ccccc23)c2cc3n(n2)CCOC3)c1 (centres unmarked) ) reads 77

Field CC50 at 4 days (entry COc1cncc(NC(C(=O)c2c[nH]c3ccccc23)c2ccc(C#N)cc2)c1 (centres unmarked) ) reads 67
